Molecular target: human invariant Vα24^+/Vβ11^+ TCR binding to hCD1d-lipid complex (Homo sapiens, UniProt P15813)
Construct: soluble human CD1d molecules
Assay: Surface plasmon resonance (Biacore) of soluble iNKT TCR binding to hCD1d monomers loaded with analogs
Details: equilibrium binding; read-out: Kd of the TCR binding to the monomer
pKd: −log10 of the molar value.
Examples of compounds with documented pKd follow.

{"columns": ["compound", "pKd"],
 "data": [
  ["CCCCCCCCCCCCCCCCCCCCCCCCCC(=O)N[C@@H](COC[C@H](O)[C@@H](O)CO)[C@H](O)[C@H](O)CCCCCCCCCCCCCC [Compound 3, Threitol Ceramide]", 5.24],
  ["CCCCCCCCCCCCCCCCCCCCCCCCCC(=O)N[C@@H](COC[C@H](O)[C@@H](O)[C@@H](O)c1ccccc1)[C@H](O)[C@H](O)CCCCCCCCCCCCCC [Compound 14, 4-(S)-Phenyl Threitol Ceramide]", 5.42],
  ["CCCCCCCCCCCCCCCCCCCCCCCCCC(=O)N[C@@H](CO[C@H]1OC(CO)[C@H](O)C(O)C1O)[C@H](O)[C@H](O)CCCCCCCCCCCCCC (stereo partly drawn) [α-GalCer, α galactosylceramide, reference compound]", 5.89],
  ["CCCCCCCCCCCCCCCCCCCCCCCCCC(=O)N[C@@H](COC[C@H](O)[C@@H](O)[C@H](O)c1ccccc1)[C@H](O)[C@H](O)CCCCCCCCCCCCCC [Compound 15, 4-(R)-Phenyl Threitol Ceramide]", 5.37]
]}

###

Assay: Viability of analog-pulsed DC co-cultured with iNKT cells (propidium iodide)
Type: cell-based, human
Settings: human; at concentration of maximal DC maturation; read-out: DC still viable

{"columns": ["compound", "viability at 48 h, 0.8 ng/ml (%)"],
 "data": [
  ["CCCCCCCCCCCCCCCCCCCCCCCCCC(=O)N[C@@H](CO[C@H]1OC(CO)[C@H](O)C(O)C1O)[C@H](O)[C@H](O)CCCCCCCCCCCCCC (stereo partly drawn) [α-GalCer, α galactosylceramide, reference compound]", 10]
]}

###

Tested on: IFN-γ from the iNKT cells
Test: IFN-γ ELISA of supernatants of DC/iNKT co-cultures
Assay type: cell-based, human
Settings: analogs presented by DC
Examples of compounds with documented IFN-γ released by the iNKT cells follow.
measureName: IFN-γ released by the iNKT cells

{"columns": ["compound", "measureName", "measuredValue"],
 "data": [
  ["CCCCCCCCCCCCCCCCCCCCCCCCCC(=O)N[C@@H](COC[C@H](O)[C@@H](O)CO)[C@H](O)[C@H](O)CCCCCCCCCCCCCC [Compound 3, Threitol Ceramide]", "IFN-γ released by the iNKT cells", "~20 ng/mL"],
  ["CCCCCCCCCCCCCCCCCCCCCCCCCC(=O)N[C@@H](COC[C@@H](O)CO)[C@H](O)[C@H](O)CCCCCCCCCCCCCC [Compound 2, Glycerol Ceramide]", "IFN-γ released by the iNKT cells", "~20 ng/mL"]
]}
